Where these numbers come from: patent US20260274955A1

Anti-CD28 Fab signal values, listed per item
Target: Anti-CD28 Fab (SEQ ID NOs: 202, 203)
Sequence (VH, as listed by the source, chain 1 of 2): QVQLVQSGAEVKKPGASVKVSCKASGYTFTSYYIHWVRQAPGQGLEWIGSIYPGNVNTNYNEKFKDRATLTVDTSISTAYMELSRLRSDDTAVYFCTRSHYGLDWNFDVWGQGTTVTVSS
Sequence (VL, as listed by the source, chain 2 of 2): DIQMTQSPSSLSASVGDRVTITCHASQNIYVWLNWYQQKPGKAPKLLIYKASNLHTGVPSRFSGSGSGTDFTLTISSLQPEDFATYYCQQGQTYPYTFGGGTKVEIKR
Test: phage binding ELISA on captured Fab;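 note: clonal phage supernatants added briefly to wells pre-incubated with CD28 antigen or with blocking buffer only, then washed, bound phage read by ELISA using HRP-coupled anti-M13 antibody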
MEASURE NAME: Anti-CD28 Fab signal

• YCQGHLPIYMEKCL [Phage-132] = 2.24
• YCEGHLPEYIEKCL [Phage-28] = 2.06
• YCEGHAPEYIAKCL [Phage-29] = 2.15
• WCWYYREWVPMTCP [Phage-14] = 1.85
• WICDKSGSIMLCRA [Phage-17] = 0.91
